These entries and their values trace back to patent US20220064329A1.

- ASSAY SYSTEM: T1, recombinant human activated Factor VII (FVIIa) (human, UniProt P08709 61-212; P08709 213-466, ten glutamate residues of the Gla domain may be gamma-carboxylated)
- T1 construct: chains tethered by a disulfide bond; also called Factor VIIa; rFVIIa
- T1 sequence 1: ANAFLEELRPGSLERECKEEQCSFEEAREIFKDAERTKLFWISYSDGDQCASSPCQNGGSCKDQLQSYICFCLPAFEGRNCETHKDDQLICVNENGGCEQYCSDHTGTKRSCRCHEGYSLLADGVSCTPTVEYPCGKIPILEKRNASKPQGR
- T1 sequence 2: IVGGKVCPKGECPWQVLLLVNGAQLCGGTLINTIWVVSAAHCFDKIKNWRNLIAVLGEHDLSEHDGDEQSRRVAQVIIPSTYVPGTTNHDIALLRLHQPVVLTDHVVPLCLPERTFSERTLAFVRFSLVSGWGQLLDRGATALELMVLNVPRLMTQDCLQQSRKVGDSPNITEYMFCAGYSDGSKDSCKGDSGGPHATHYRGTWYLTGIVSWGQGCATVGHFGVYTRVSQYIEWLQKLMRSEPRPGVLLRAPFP
- EXPERIMENT SUMMARY: BLI (Fortebio)
- Method: All steps were performed in running buffer (20 mM HEPES buffer (pH 7.4), 150 mM NaCl, 5 mM CaCl2, 0.03% Tween 20, 1 mg/ml IgG-free BSA) at […] Antibodies were captured on anti-human tips (AHC, Fortebio) for 3 min at a concentration of 10 ug/ml. […] Following this, association was monitored for 3 min using four different concentrations of VIIa (25 nm, 50 nM, 100 nM, and 200 nM), followed by a 3 mi dissociation. Sensorgrams were analysed using Fortebio data analysis software.
ASSAY METRIC: pKd
// returns pKd (minus log10 of molar concentration), number only

Reference set, count: 2
BINDER	ENDPOINT RESULT
VH SEQ ID NO 610 / VL SEQ ID NO 310 (antibody, IgG4, V domains shown, humanized 11F2; IgG4 S228P/kappa) VH: QVQLQESGPGLVKPSQTLSLTCTVSGGSITSDSAWSWIRQPPGKGLEWIGYIQYSGSTNYNPSLKSRVTISVDTSKNQFSLKLSSVTAADTAVYYCARSVNYYGNSFAVGYWGQGTLVTVSS VL: EIVLTQSPATLSLSPGERATLSCRASQGISDYLAWYQQKPGQAPRLLIKYASQPATGIPARFSGSGSGTDFTLTISSLEPEDFAVYYCQNGHSFPLTFGQGTKLEIK	7.10
VH SEQ ID NO 546 / VL SEQ ID NO 486 (antibody, IgG4, V domains shown, humanized 11F2; IgG4 S228P/kappa) VH: QVQLQESGPGLVEPSQTLSLTCTVSGYSITSDSAWSWIRQPPGKKLEWIGYIQYSGSTNYNPSLKSRVTISRDTSKNQFSLKLSSVTAADTAVYYCARSVNYYGNSFAVGYWGQGTSVTVSS VL: EIVLTQSPATLSLSPGERATLSCRASQGVSDYLHWYQQKPGQAPRLLIKYASQPATGIPARFSGSGSGTDFTLTISSLEPEDFGVYYCQNGHSFPLTFGQGTKLEIK	8.96

According to the records, this binder VH SEQ ID NO 634 / VL SEQ ID NO 454 (antibody, IgG4, V domains shown, humanized 11F2; IgG4 S228P/kappa) VH: QVQLQESGPGLVKPSQTLSLTCTVSGYSISSDSAWSWIRQPPGKGLEWIGYIQYSGSTNYNPSLKSRVTISRDTSKNQFSLKLSSVTAADTAVYYCARSVNYYGNSFAVGYWGQGTLVTVSS VL: EIVLTQSPATLSLSPGERATLSCRASQGVSDYLHWYQQKPGEAPRLLIKYASQPATGIPARFSGSGSGTDFTLTISSLEPEDFAVYYCQNGHSFPLTFGQGTKLEIK displays pKd of 8.92
